Data provenance is the nanobody polyreactivity screen of Harvey et al. (2022).

# method.description: yeast display, Sf9 membrane polyspecificity reagent, FACS + sequencing; frameworks hold sequencing errors
measured.quantity: polyreactivity (PSR sort gate)

QVQLVESGGGLVQAGGSLRLSCAASGLILQYYVMGWYRQAPGKERELVAAITRSGGGTYYADSVKGRFTISRDNAKNTVYLQMNSLKPEDTAVYYCADRQPYRFHGSEYDYWGQGTQVNVSS	high polyreactivity
QVQLVESGGGLVQAGGSLRLSCAASGRTFLLYAMGWYRQAPGKERELVAAITSGGGRTYYADSVKGRFTISRDNAKNTVYLQMNSLKPEDTAVYYCAATRPATYAAYDYWGQGTQVTVSS	high polyreactivity

---

# method.description: yeast display, Sf9 membrane polyspecificity reagent, FACS + sequencing; frameworks hold sequencing errors
measured.quantity: polyreactivity (PSR sort gate)

QVQLVESGGGLVQAGGSLRLSCAASGSTFRWNAMGWYRQAPGKERELVAAISSGGRTYYADSVKGRFTISRDNAKNTVYLQMNSLKPEDTAVYYCSARTSRYYYYPYAFYWGQGTQVSVSS	high polyreactivity
QVQLVESGGGLVQAGGSLRLSCAASGFTLARYAMGWYRQAPGKERELVAGITGGGSTYYADSVKGRFTISRDNAKNTVYLQMNSVKPEDTAVYYCNARTYWKSRLKQYNYWGQVTQVTVSS	high polyreactivity

---

# method.description: yeast display, Sf9 membrane polyspecificity reagent, FACS + sequencing; frameworks hold sequencing errors
measured.quantity: polyreactivity (PSR sort gate)

QVQLVESGGGLVQAGGSLRLSCAASGRTFRRNAMGWYRQAPGKERELVAPISRGGSTNYADSVKGRFSISRDNAKNTVYLQMNSMKPEDTAVFYCAARYYYRYNYWGQGTQVTVSS	high polyreactivity
QVQLVESGGGLVQAGGSLRLSCAASGITYPGYAMGWYRQAPGKERELVAVIRKSGTSTYYADSVKGRFTISRDNAKNTVYLQMNSLKPEDTAVYYCAAGGPSTLDDYWGQGTQVTVSS	low polyreactivity
QVQLVESGGGLVQAGGSLRLSCAASGRTFVNYTMGWYRQAPGKEWELVAAIRYRDGSTYYADSVKGRFTISRDYAKNTVYLQMNSLKPEDTAVYYCNTRITQVGDYIYDYWGQGTQVTVSS	low polyreactivity
QVQLVESGGGLVQAGGSLRLSCAASGFIFRPYVMGWYRQAPGKERELVAAISRSGSSTYYADSVKGRFTISRDNAKNTVYLQMNSLKPEDTAVYYCNAVYYLYKGDYWGQGTQVTVSS	high polyreactivity
QVQLVESGGGLVQEGGSLRLSCAASGSIFVNNGMGWYRQAPGKERELVAAIRLSTGSTYYADSVKGRFTISRDNAKNTVYLQMNSLKPEDTAVYFCNAVRYPRLMYYWGQGTQVTVSS	high polyreactivity

Challenge: Look at this sequence and give its reported polyreactivity (PSR sort gate). `QVQLVESGGGLVQAGGSLRLRCAASGFIFNYYALGWYRQAPGKERELVAAINSGGNTYYADSVKGRFTISRDNAKNPVYIKMNTLKPEDTAVYYCNRDPESVGYDYWGQGTQVTVSS`
Response given: low polyreactivity

Challenge: // same read-out, input: `QVQLVESGGGLVQAGGSVRLSCAASGFTFWRYAMGWYRQAPGKEREFVAAITRSGVSTSNADSVKGRFTISRDNAKNTVYLQMNSLKPEDTAVYYCAALFYTSVPYPDYDYWGQGTQVTVSS`
Response given: high polyreactivity

Challenge: Another sequence to check: `QVQLVESGGGLVQAGGSLRLSCAASGRIFKYYTMGWYRQAPGKERELVAAISRDDSTNYADSVKGRFTISRDNAKNTVYLQMNSLKPEDTAVYYCAKGYHQYAGFYYWGLGTQVTVSS`
Response given: high polyreactivity

Challenge: Same question, `QVQLVESGGGLVQAGGSLRLSCAASGSIFDINAMGWYRQAPWKERELVAAISLSAGSTYYADSVKGRFTISRDNSKNTVYFQMNSLYPDDAAVFYCNADGWYGYWGQVTQVTVSS` this time
Response given: low polyreactivity

Challenge: Also check `QVQLVESGGGLVQAGGSLRLSCAASGSIFPVYAMGWYRPAPGKERELVAAISLRAGNTYYADSVKGRFTISRDNAKNTVYLQMNSLKPEDTAVYDCAVELFRSTTIYDYWGQGTLVTVSS`
Response given: high polyreactivity

Challenge: Another sequence to check: `QVQLVESGGGLVQAGGSLRLICAASGRIFWYYAMGWYRQAPGKERELVASITSGGRTKYADSVKGRFTISRDNAKNTVYLQMNSLKPEDTAVYYCAARLLIDYHADWWVAYDYWGQGTQVTVSS`
Response given: low polyreactivity

---

# method.description: yeast display, Sf9 membrane polyspecificity reagent, FACS + sequencing; frameworks hold sequencing errors
measured.quantity: polyreactivity (PSR sort gate)

Past entries and their recorded results:
QVQLQESDGGLVQAGGSLRLICAASGSISPQYYMGWYRQAPGKEREFVAISKGTTTYYADSVKGRLTISRVNAKNTVYLQMNSLKPEDTAVYCCAAGRWLQKVHAYWDQGTQVTVSS	low polyreactivity
QVQLVESGGGLVQAGGSLRLSCAASGFTFVRYAMGWYRQAPGKERELVAAITRSGGSTYYADSVKGRFTISRDNAKNTVYLQMNSLKPEDTAVYYCNARRSRSRYDYWGQGTQVTVSS	high polyreactivity
QVQLVESGGGLVQEGGSLRLSCAASGNTFKYYSMGWYRQAPGKERELVAAITWNGARTYYADSVKGRFTISRDNAKNTVYLQMNSLKPEDTAVYYCNARQGYRFDYWGQGTQVTVSS	high polyreactivity
QVQLVESGGGLVQAGGSLRLSCAASGSTFQLYAMGWYRQAPGKERELVAAISGIGDSTYYADSVKGRFTISRDNAKNTVYLQMNSLKPEDTAVYYCAREFSDGLSGKFDYWGHGTQVTVSS	low polyreactivity

Please find the next sequence below.
Challenge: Entry under review: `QVQLVESGGGLVQAGGSLRLSCAASGSTIYINGMGWYRQAAGKERELVAVISKRGGTTYYADSVKGRFTISRDNAKNTVYLQMNSLKPEDTAVYYCADRPYYWGQGTQVTVSS` . Reported polyreactivity (PSR sort gate)?
Response given: high polyreactivity

---

# method.description: yeast display, Sf9 membrane polyspecificity reagent, FACS + sequencing; frameworks hold sequencing errors
measured.quantity: polyreactivity (PSR sort gate)

Look over these answered cases.
QVQLVESGGGLVQAGGSLRISCAASGRTFPGNAMGWYRQAPGKERELVAAISWSGTRTYYADSVKGRFTISRDNAKNTVYLQMNSLKPEDTAVYYCNVVVKGAWDYYPYDYWGQGTQVTVSS	high polyreactivity
QVQLVESGGGLVQAGGSLRLSCAASGSTFGTYAMGWNRQATWKERELVAAITYSTGNTYYADSVKGRFTISRDNAKNNVYLQMNSLKPEDTAVYYCALEFGYYYFWMDYWGQGTQVTVSS	high polyreactivity
QVQLVESGGGLVQAGGSLRLSCAASGFTFKYYDMGWYRQAPGKERELVAAIDTSGGNTYYADSVKGRFTISRDYAKNTVYLQMNSLKPEDTAVYYCAATVPYYHDDYWGQGTQVTVSS	low polyreactivity
QVQLVESGGGLVQAGGSLRLSCAASGSTFDRNAMGWYRQAPWKERELVATINSDDSKNYADSVKGRFTISRDNAKNTVYLQMNSLKPEDTAVYYCAARLYVTPILSYVERYTNDYWGQGTQVTVSS	low polyreactivity

Now for the sequence whose polyreactivity (PSR sort gate) we want.
Challenge: Would you kindly share the measured polyreactivity (PSR sort gate) for `QVQLVESGGGLVQAGGSLRLSCAASGSILPLYAMGWYRQAPGKERELVATISNAGSTTYADSVKGRFTISRDNAKNTVYLQMHSLKPEVTAVYYCNAESEWGWVYVGYDYWGQGTQVTVSS` ?
Response given: low polyreactivity

---

# method.description: yeast display, Sf9 membrane polyspecificity reagent, FACS + sequencing; frameworks hold sequencing errors
measured.quantity: polyreactivity (PSR sort gate)

QVQLVESGGGLVQAGGSLRLSCAASGRIIRYYAMGWYRQAPGKERELVAAISKSGGSTYYADSVKGRFTISRDNAKNTVYLQMNSMKREDTAVFFCAAGTSRYVYHSYGKYEYWGQGTQVTVSS	high polyreactivity
QVQLVESGGGLVQAGGSLRLSCAASGLTFRKNAMGWYRQAPGKERELVAAISTGGRTYYADSVKGRFTISRDNAKNTVYLQMNSLKPEDTAVYYFNSVSVKSGLDYWGQGTQVTVSS	high polyreactivity

---

# method.description: yeast display, Sf9 membrane polyspecificity reagent, FACS + sequencing; frameworks hold sequencing errors
measured.quantity: polyreactivity (PSR sort gate)

QVQLVESGGGLVQAGGSLRLSCAASGITFPYYAMGWYRQAPGKERELVAAISSSGGSTYYADSVKGRFTISRDNAKNTVYLQMNSLKPEDTAVYYCAAQRYIHYDYWGQGTQVTVSS	high polyreactivity
QVQLVESGGGLVQAGGSLRLSSAASGSTVPRYAMGWDRQAPGKERAFVAVIWSGGSTYYAVSVKGRFTISRDNAKNTVYLQMNSLKPEDTAVYYCAAEYHTLSKYSGYATHDYWGQGTQVTVSS	low polyreactivity
QVQLVESGGGLVQAGGSLRIICAASGSIFVEYAMGWYRQAPGKERELVAAITYRGGSTYYADSVKGRFTISRDNAENTVYLQMNSLKPEDTAVYYCAAAVYYWGTSAYEYWGQGTQVTVSS	low polyreactivity
QVQLVESRGGLVQAGGSLRLSCAASGFIITQYAMGWYRQAPGKERELVAAISGRGGSTYYADSVKGRFTISRDNAKNTVYLQMNSLIPEDTAVYYCNTVRIGPPQDYDYWGQGTQVTVSS	high polyreactivity
QVQLVESGGGLVQAGGSLRLSCAASGSICAYYAMGWYRQAPGKERELVAAISGTGGSTNYADSVKGRFTISRDNAKNNVYLQMNSLKPEDTAVYYCAKDYSFQWRNEFNLAGEYDYWGQGTQVTVSS	low polyreactivity
QVQLVESGGGLVQAGGSLRLSCAASGFTFTWYAMGWYRQAPGKERELVASISRSGGSTYYADSVKGRFTISRDNAKNTVYLQMNSLKPEDTAVYYCAAVSRTRSYDYWGQGTQVTVSS	high polyreactivity
QVQLVESGGGLVQAGGSLRLSCAASGSTYAGNAIGWSRQAPRKERELVAAIDSSTGSTYYADSVKGRFTISRDNAKNTVYLQMNSLNPEDTAVYYCNKTSFLVKLDYWGQGTQVTVSS	low polyreactivity
QVQLVESGGGLVQAGGTLRLSCSASGSTFAINAMGWYRQPPGKERELVATITSGSNTNNADSVKGRFTISRDNAKNTVDLQMNSLNPEDTAVYYCAAAFGYRFHYGYFYIYDYWGQGTQVTVSS	high polyreactivity

Challenge: Look up polyreactivity (PSR sort gate): `QVQLVESGGGLVQAGGSLRLSCAASGFTFYQYAMGSYRQAPGKESEFVATISSGGSTYYADSVKGRFTISRDNAKNTFYLQMNSLIPEDTAVYYCAKVDFIVGYYYWGQGTQVTVSS`
Response given: low polyreactivity
